Biological target: HLA A1101 (human)
Test: 125I-probe competition, purified HLA
measured.parameter: log10 of IC50 (log10 of the value in nM)
The base-10 logarithm of IC50, taken with IC50 in nM, is what appears here.

Give a short answer stating reported log10 of IC50 for SVYGETLEK (modifications not checked) [HPV45.E6.84] .
0.98

For the binder STAAALYWYR (modifications not checked) [HPV31.E1.294] , report log10 of IC50.
1.00

State its log10 of IC50: STAAALYWYK (modifications not checked) [HPV16.E1.314]
0.30

# return recorded log10 of IC50 for input KVSEFRWYRY (modifications not checked) [HPV31.E6.72]
1.40

Quote log10 of IC50 reported for ISFAGIVTK (modifications not checked) [HPV31.E2.205] please.
0.20

Report log10 of IC50 for ATMCRHYKR (modifications not checked) [HPV16.E1.406]
1.15

State its log10 of IC50 for this binder: AVMCRHYKR (modifications not checked) [HPV45.E1.399]
1.58

Indicate its recorded log10 of IC50; the binder in question is QVVPAYNISK (modifications not checked) [HPV18.E2.61]
1.15

State its log10 of IC50 for this binder: VVLLLVRYK (modifications not checked) [HPV16.E1.274]
0.61

Tell me its log10 of IC50 given STVSVGTAK (modifications not checked) [HPV18.E2.230] as the entry.
0.78

Item STWHWTGCNK (modifications not checked) [HPV45.E2.322] : provide log10 of IC50
0.45

Name the recorded log10 of IC50 of the binder listed here: KSLFGMSLMK (modifications not checked) [HPV16.E1.483]
0.30

Supply log10 of IC50 value. Item: ATLQDIVLH (modifications not checked) [HPV18.E7.6]
1.04

Read the entry SVICFVNSK (modifications not checked) [HPV16.E1.497] and write its reported log10 of IC50.
0.34

Fill in reported log10 of IC50 for this entry: ATTPIIHLK (modifications not checked) [HPV31.E2.291]
0.08

// Input: KQGAMLAVFK (modifications not checked) [HPV18.E1.210] . Output its log10 of IC50 only.
1.04

Give recorded log10 of IC50. RQMNMSQWIK (modifications not checked) [HPV45.E1.411]
1.04

Input TVSATQLVK (modifications not checked) [HPV18.E2.211] , output reported log10 of IC50.
0.60

State its log10 of IC50 for this binder: AATKYPLLK (modifications not checked) [HPV16.E4.9]
1.30
